# assay details: qHTS assay to identify small molecule antagonists of the sonic hedgehog signaling (Shh) pathway - cell viability counter screen (AID 1259367); also: nearly all actives have a fitted effect of over 55% in size
# condition notes: NIH/3T3 Gli1-Luc viability, CellTiter-Fluor, 24 h; series mostly up to 92.4 µM
# Text: National Center for Advancing Translational Sciences [NCATS] NIH Chemical Genomics Center [NCGC] U.S. Environmental Protection Agency [EPA] National Institutes of Environmental Health Sciences [NIEHS] National Toxicology Program [NTP] U.S. Food and Drug Administration [FDA] The sonic hedgehog (Shh) pathway is essential for normal embryonic development. Dysregulation of the Shh pathway can cause severe developmental defects in organs. […]
Inconclusive results are not listed. The source made the active and inactive calls. Calls follow the shape of the dose curve; as a rule, active = well fitted cell-killing curve with a large enough effect in the repeat runs; inconclusive = weak or mixed curves, or effect the other way; inactive = no such curve, though single readings can be large or run the other way.
Outcome codes: 1.0 (active), 0.0 (inactive)

1. O=C(Cc1ccccc1)OCCc1ccccc1
0.0
2. NC(=S)c1c(Cl)cccc1Cl
0.0
3. CC(C)(C)N(NC(=O)c1ccc(Cl)cc1)C(=O)c1ccccc1
1.0
4. C[Si](Cn1cncn1)(c1ccc(F)cc1)c1ccc(F)cc1
0.0
5. COc1ccc2c(c1OC)C(=O)O[C@H]2[C@@H]1c2cc3c(cc2CCN1C)OCO3
1.0
6. O=C(O)COc1cc(Cl)c(Cl)cc1Cl
0.0
7. CC(C)OC(=O)Cc1ccccc1
0.0
8. C=CCc1ccc(OC(=O)Cc2ccccc2)c(OC)c1
0.0
9. CCCCCCCCCCCC[N+](C)(C)CCOc1ccccc1
1.0
10. CC[N+]1(CCOC(=O)C(O)(c2ccccc2)c2ccccc2)CCCCC1
0.0
11. CCC(C)Cl (stereo unspecified)
0.0
12. C=CC(=O)NC(C)(C)CC(C)=O
0.0
13. CCOC(=O)c1cn2nc(OP(=S)(OCC)OCC)cc2nc1C
0.0
14. C=CC(=O)OCC
0.0
15. N#CC1(N=NC2(C#N)CCCCC2)CCCCC1
0.0
16. COC(=O)C1(O)c2ccccc2-c2ccccc21
0.0
17. C=CCOCC1CO1 (stereo unspecified)
0.0
18. O=C(N[C@H]1CN2CCC1CC2)c1ccc2c(c1)OCCO2
0.0
19. NNCCO
0.0
20. CCCSP(=S)(OCC)Oc1ccc(SC)cc1 (stereo unspecified)
0.0
21. Nc1ccccc1C(=O)OCCc1ccccc1
0.0
22. Cc1nc2ccccc2c(=O)n1-c1ccccc1Cl
1.0
23. FC(F)OC(F)(F)C(F)Cl (stereo unspecified)
0.0
24. COCc1cnc(C2=NC(C)(C(C)C)C(=O)N2)c(C(=O)O)c1 (stereo unspecified)
0.0
25. CC(Cc1ccccc1)NCc1ccccc1Cl (stereo unspecified)
0.0
26. COC(=O)Cc1ccccc1
0.0
27. CCCN(CCOc1c(Cl)cc(Cl)cc1Cl)C(=O)n1ccnc1
0.0
28. CCOC(=O)NC(O)C(Cl)(Cl)Cl (stereo unspecified)
0.0
29. CCC1(CCC(C)C)C(=O)NC(=O)NC1=O
0.0
30. CC(C)[C@@H](C(=O)O[C@@H](C#N)c1cccc(Oc2ccccc2)c1)c1ccc(Cl)cc1
0.0
31. C#C[C@]1(O)CC[C@H]2[C@@H]3CCC4=CC(=O)CCC4=C3C=C[C@@]21CC
0.0
32. O=CC=O
0.0
33. CC(C)(C)NCC(O)c1ccccc1Cl (stereo unspecified)
0.0
34. CN[C@@H](C)[C@H](O)c1ccccc1
0.0
35. C[C@H]1[C@@H]2Cc3ccc(O)cc3[C@@]1(C)CCN2C
0.0
36. CCCN(CCC)c1c([N+](=O)[O-])cc(C(C)C)cc1[N+](=O)[O-]
0.0
37. CCCCC(CC)COC(=O)c1c(Br)c(Br)c(Br)c(Br)c1C(=O)OCC(CC)CCCC (stereo unspecified)
0.0
38. NP(N)(=O)NC(=O)c1ccc(F)cc1
0.0
39. OCC1CO1 (stereo unspecified)
0.0
40. CCCC(C)(COC(N)=O)COC(=O)NC(C)C (stereo unspecified)
0.0
41. CON(C)C(=O)Nc1ccc(Cl)cc1
0.0
42. CCCCC(CC)CO[N+](=O)[O-] (stereo unspecified)
0.0
43. CCOC(=O)C1OC1(C)c1ccccc1 (stereo unspecified)
0.0
44. ClCc1ccccc1Cl
0.0
45. CCCCCCCCP(=O)(O)O
0.0
46. CC(C)C1(C)N=C(c2ncccc2C(=O)O)NC1=O (stereo unspecified)
0.0
47. CC(O)CN1CCN(CC(=O)[O-])CCN(CC(=O)[O-])CCN(CC(=O)[O-])CC1.[Gd+3] (stereo unspecified)
0.0
48. CCOC(=O)c1cncn1C(C)c1ccccc1 (stereo unspecified)
0.0
49. CCCCC1C(=O)NC(=O)N(C2CCCCC2)C1=O (stereo unspecified)
0.0
50. O=C(O)c1cc(I)cc(I)c1I
0.0
51. O=C(CCl)CCl
0.0
52. CCC1(C2=NCCN2)Cc2ccccc2O1 (stereo unspecified)
0.0
53. CN1C(=O)CN=C(c2ccccc2)c2cc([N+](=O)[O-])ccc21
0.0
54. CC1(C)CC(=O)CC(C)(C)N1[O]
0.0
55. COP(=O)(OC)OC(Br)C(Cl)(Cl)Br (stereo unspecified)
0.0
56. CCCCCCCCn1sccc1=O
1.0

----------
# assay details: qHTS assay to identify small molecule antagonists of the androgen receptor (AR) signaling pathway using the MDA cell line - cell viability counter screen (AID 743041; also: nearly all actives have a fitted effect of over 45% in size)
# condition notes: MDA-kb2 viability, CellTiter-Fluor, 16 h, cells co-treated with R1881 androgen agonist; series mostly up to 70.3 µM
# Excerpt: National Center for Advancing Translational Sciences [NCATS] NIH Chemical Genomics Center [NCGC] U.S. Environmental Protection Agency [EPA] National Institutes of Environmental Health Sciences [NIEHS] National Toxicology Program [NTP] U.S. Food and Drug Administration [FDA] Androgen receptor (AR), a nuclear hormone receptor, plays a critical role in AR-dependent prostate cancer and other androgen related diseases. […]
Inconclusive results are not listed. The source made the active and inactive calls. The call rests on the fitted dose curve; in most records, active means well fitted cell-killing curve with a large enough effect in the repeat runs; inconclusive means weak or mixed curves, or effect the other way; inactive means flat fitted curve, though single readings scatter.
Outcome codes: active, inactive

1. O=CC=O
inactive
2. C[C@@H]1C[C@@H]([C@H](O)CC2CC(=O)NC(=O)C2)C(=O)[C@@H](C)C1
inactive
3. CCCCCCCCn1sccc1=O
active
4. C1CS1
inactive
5. CC(C)OC(=O)Cc1ccccc1
inactive
6. O=C(O)c1cc(I)cc(I)c1I
inactive
7. CCOC(=O)c1cn2nc(OP(=S)(OCC)OCC)cc2nc1C
inactive
8. CC(O)CN1CCN(CC(=O)[O-])CCN(CC(=O)[O-])CCN(CC(=O)[O-])CC1.[Gd+3] (centres undefined)
inactive
9. CCc1ccccc1N
inactive
10. NC(=S)c1c(Cl)cccc1Cl
inactive
11. Oc1cccc(Cl)c1
inactive
12. CCOP(=O)(SC(C)CC)N1CCSC1=O (centres undefined)
inactive
13. OCCCl
inactive
14. O=C1CC[C@@]2(O)[C@H]3Cc4ccc(O)c5c4[C@@]2(CCN3CC2CC2)[C@H]1O5
inactive

----------
# assay system: Luciferin 4-monooxygenase (Photinus pyralis) (UniProt P08659)
# Sequence (P08659 whole entry, looked up): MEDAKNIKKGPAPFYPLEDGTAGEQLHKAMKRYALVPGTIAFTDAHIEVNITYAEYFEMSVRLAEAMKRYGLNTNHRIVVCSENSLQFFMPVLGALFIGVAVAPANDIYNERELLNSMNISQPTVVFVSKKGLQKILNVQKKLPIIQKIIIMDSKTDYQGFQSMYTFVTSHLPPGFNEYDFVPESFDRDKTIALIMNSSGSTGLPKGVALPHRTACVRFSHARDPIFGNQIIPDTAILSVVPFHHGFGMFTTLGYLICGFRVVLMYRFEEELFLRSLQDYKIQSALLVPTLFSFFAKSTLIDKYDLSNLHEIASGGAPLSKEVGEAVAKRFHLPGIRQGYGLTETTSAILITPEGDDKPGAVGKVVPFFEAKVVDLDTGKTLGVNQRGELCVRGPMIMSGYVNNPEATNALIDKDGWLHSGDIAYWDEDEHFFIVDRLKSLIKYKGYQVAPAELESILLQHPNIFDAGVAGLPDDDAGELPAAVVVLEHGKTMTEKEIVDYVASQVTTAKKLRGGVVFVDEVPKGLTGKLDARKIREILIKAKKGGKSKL
# assay details: qHTS assay to identify small molecule inhibitors of firefly luciferase (AID 1224835); also: nearly all actives have a fitted effect of over 25% in size
# condition notes: purified P. pyralis luciferase, luminescence inhibition; series mostly up to 115 µM
Inconclusive results are not listed. Active and inactive are the calls of the source. Calls come from the whole dose curve; as a rule, active = well fitted inhibition curve with a large enough effect in the repeat runs; inconclusive = weak or mixed curves; inactive = flat fitted curve, though single readings scatter.
Outcome codes: active, inactive

1) COC1=CC(=O)O[C@@H](/C=C/c2ccc3c(c2)OCO3)C1
active
2) CCOP(=S)(S)OCC
active
3) COC(=O)Cc1ccccc1
inactive
4) O=[N+]([O-])c1cc(Cl)c(Cl)cc1Cl
inactive
5) O=C(O)COc1cc(Cl)c(Cl)cc1Cl
inactive
6) CC(C)CCON=O
inactive
7) Nc1cc(Cl)cc(C(=O)O)c1Cl
inactive
8) CN(C)C(=O)Nc1cccc(OC(=O)NC(C)(C)C)c1
inactive
9) O=C(Cc1ccccc1)c1ccccc1
active
10) CCCCC(CC)COC(=O)c1c(Br)c(Br)c(Br)c(Br)c1C(=O)OCC(CC)CCCC (stereo not given)
inactive
11) CCOC(=O)c1cn2nc(OP(=S)(OCC)OCC)cc2nc1C
inactive
12) CC(C)CCCCCCCOC(=O)c1ccccc1C(=O)OCCCCCCCC(C)C
inactive
13) COc1cc(CC#N)cc(OC)c1OC
inactive
14) Cc1nnc(-c2ccccc2)c(=O)n1N
inactive
15) CCCCC1C(=O)NC(=O)N(C2CCCCC2)C1=O (stereo not given)
inactive
16) Clc1ccccc1
inactive
17) CCCCOC(=O)CCC(=O)OCCCC
inactive
18) CC(C)(c1ccccc1)c1cc(-n2nc3ccccc3n2)c(O)c(C(C)(C)c2ccccc2)c1
inactive
19) NCCc1cc(O)c(O)cc1O
inactive
20) C[N+]1(CCF)[C@@H]2CC[C@H]1CC(OC(=O)C(O)(c1ccccc1)c1ccccc1)C2 (stereo not given in full)
inactive
21) C[Si](Cn1cncn1)(c1ccc(F)cc1)c1ccc(F)cc1
inactive
22) O=C([O-])c1ccccn1.O=C([O-])c1ccccn1.O=C([O-])c1ccccn1.[Cr+3]
inactive
23) Clc1ccc2ccccc2c1
inactive
24) CC(O)CN1CCN(CC(=O)[O-])CCN(CC(=O)[O-])CCN(CC(=O)[O-])CC1.[Gd+3] (stereo not given)
inactive
25) OCCSSCCO
inactive
26) CCCC[N+](CCCC)(CCCC)CCCC
inactive
27) N#CC1(N=NC2(C#N)CCCCC2)CCCCC1
inactive
28) Nc1ccccc1C(=O)OCC(O)CO (stereo not given)
inactive
29) COc1ccc(C(O)(c2cncnc2)C2CC2)cc1 (stereo not given)
inactive
30) CCCCCBr
inactive
31) C[C@]12C=CC3=C4CCC(=O)C=C4CC[C@H]3[C@@H]1CC[C@@H]2O
inactive
32) CCCCCl
inactive
33) COC(=O)C1(O)c2ccccc2-c2ccccc21
inactive
34) COc1cc(CC(C)N)c(OC)cc1Br (stereo not given)
inactive
35) CC(Cl)C(=O)O (stereo not given)
inactive
36) O=P(OCC(Br)CBr)(OCC(Br)CBr)OCC(Br)CBr (stereo not given)
inactive
37) CC(C)(C)CC(C)(C)c1ccc(O)cc1
inactive
38) CN1C[C@H](C(=O)N[C@]2(C)O[C@@]3(O)[C@@H]4CCCN4C(=O)[C@H](Cc4ccccc4)N3C2=O)C=C2c3cccc4[nH]cc(c34)C[C@H]21
active
39) CCC1CCC(=O)O1 (stereo not given)
inactive
40) O=C(N/N=C/c1ccc([N+](=O)[O-])o1)c1cc([N+](=O)[O-])cc([N+](=O)[O-])c1O
active
41) FC(Cl)(Cl)C(F)(Cl)Cl
inactive
42) O=C(Cl)OCCOCCOC(=O)Cl
inactive
43) CC(C)[C@@H](C(=O)O[C@@H](C#N)c1cccc(Oc2ccccc2)c1)c1ccc(Cl)cc1
inactive
44) CCCCCCCCP(=O)(O)O
inactive
45) C=CCc1ccc(OC(=O)Cc2ccccc2)c(OC)c1
active
46) CCOC(=O)c1cncn1C(C)c1ccccc1 (stereo not given)
inactive
47) COC1CC(=C(c2cccs2)c2cccs2)C[N+](C)(C)C1 (stereo not given)
inactive
48) CCCCC#N
inactive
49) Nc1ccc2c(c1)Cc1ccccc1-2
active
50) CC(C)(C)NCC(O)c1ccccc1Cl (stereo not given)
inactive
51) CCSCc1ccccc1OC(=O)NC
inactive
52) CN1C(=O)CN=C(c2ccccc2)c2cc([N+](=O)[O-])ccc21
inactive
53) CC(C)c1ccc(NC(=O)N(C)C)cc1
active
54) OC[P+](CO)(CO)CO
inactive
55) OCCCl
inactive
